target: HLA-B*54:01; assay: IEDB peptide-MHC binding, purified MHC/competitive/radioactivity; filed as Kd, often an IC50 or EC50 that approximates it; bounds were set here for any values at or beyond the usual limits of such assays; details: source organism: Lymphocytic choriomeningitis virus (strain Armstrong)
pKd: −log10 of the molar value.
Reported Metric: pKd

{"Input Sequence": "MPSLTMACM", "Measured Value": 5.89}

* * *

Recorded Kd for the following sequences
target: HLA-B*44:03; assay: IEDB peptide-MHC binding, purified MHC/competitive/radioactivity; filed as Kd, often an IC50 or EC50 that approximates it; bounds were set here for any values at or beyond the usual limits of such assays; details: source organism: Dengue virus 1 Brazil/97-11/1997

{"Input Sequence": "LEENMDVEIW", "Unit Symbol": "µM", "Kd": 0.126}
{"Input Sequence": "AEPDDVDCW", "Unit Symbol": "µM", "Kd": 0.236}

* * *

molecular target: HLA-B*40:01; assay: IEDB peptide-MHC binding, purified MHC/direct/fluorescence; filed as Kd, often an IC50 or EC50 that approximates it; bounds were set here for any values at or beyond the usual limits of such assays; conditions: source organism: Mycobacterium tuberculosis variant bovis
pKd: −log10 of the molar value.

{"Input Sequence": "REAPYELNI", "Readout Relation": "=", "pKd": 7.20}
{"Input Sequence": "SEILPFTVL", "Readout Relation": "=", "pKd": 7.83}
{"Input Sequence": "PMQQLTQPL", "Readout Relation": "≤", "pKd": 4.70}

* * *

biological target: HLA-B*18:01; assay: IEDB peptide-MHC binding, purified MHC/direct/fluorescence; filed as Kd, often an IC50 or EC50 that approximates it; bounds were set here for any values at or beyond the usual limits of such assays; conditions: source organism: Isla Vista hantavirus

{"Input Sequence": "SSLRYGNVL", "Target Under Test": "HLA-B*18:01", "Kd": "≥ 20 µM"}

* * *

target: HLA-B*15:01; test: IEDB peptide-MHC binding, purified MHC/competitive/fluorescence; filed as Kd, often an IC50 or EC50 that approximates it; bounds were set here for any values at or beyond the usual limits of such assays; details: source organism: Zaire ebolavirus
Reported Metric: Kd

{"Input Sequence": "LSDAIFDDL", "Measured Value": "≥ 20 µM"}

* * *

target: HLA-A*02:03; experiment: IEDB peptide-MHC binding, purified MHC/competitive/radioactivity; filed as Kd, often an IC50 or EC50 that approximates it; bounds were set here for any values at or beyond the usual limits of such assays; details: source organism: Triticum aestivum

{"Input Sequence": "SQCQAIHNV", "Target Under Test": "HLA-A*02:03", "Kd": "254 nM"}

* * *

target: HLA-B*44:02; assay: IEDB peptide-MHC binding, purified MHC/competitive/radioactivity; filed as Kd, often an IC50 or EC50 that approximates it; bounds were set here for any values at or beyond the usual limits of such assays; conditions: source organism: Mammarenavirus machupoense
pKd: −log10 of the molar value.

{"Input Sequence": "SEILKTLGF", "pKd": 8.38}
{"Input Sequence": "EDIAMGYVV", "pKd": 4.99}

* * *

molecular target: HLA-A*32:01; assay: IEDB peptide-MHC binding, purified MHC/competitive/radioactivity; filed as Kd, often an IC50 or EC50 that approximates it; bounds were set here for any values at or beyond the usual limits of such assays; settings: source organism: Dengue virus 3 Martinique/1243/1999
pKd: −log10 of the molar value.

{"Input Sequence": "GPITTLWEGS", "pKd": 5.54}
{"Input Sequence": "KEISNMLSI", "pKd": 5.20}

* * *

molecular target: HLA-B*40:01; assay: IEDB peptide-MHC binding, purified MHC/competitive/radioactivity; filed as Kd, often an IC50 or EC50 that approximates it; bounds were set here for any values at or beyond the usual limits of such assays; conditions: source organism: Hepacivirus hominis
Reported Metric: Kd

{"Input Sequence": "RDWAHNSL", "Target Under Test": "HLA-B*40:01", "Measured Value": "≥ 88.9 µM"}

* * *

biological target: HLA-A*03:01; assay: IEDB peptide-MHC binding, purified MHC/direct/fluorescence; filed as Kd, often an IC50 or EC50 that approximates it; bounds were set here for any values at or beyond the usual limits of such assays; conditions: source organism: Rickettsia conorii
pKd: −log10 of the molar value.

{"Input Sequence": "SSSGMDAYY", "Target Under Test": "HLA-A*03:01", "pKd": "≤ 4.70"}

* * *

target: HLA-B*51:01; test: IEDB peptide-MHC binding, purified MHC/competitive/fluorescence; filed as Kd, often an IC50 or EC50 that approximates it; bounds were set here for any values at or beyond the usual limits of such assays; conditions: source organism: Shigella dysenteriae Sd197
Reported Metric: Kd

{"Input Sequence": "IEDDEIIWV", "Target Under Test": "HLA-B*51:01", "Measured Value": "≥ 20 µM"}

* * *

biological target: HLA-A*31:01; assay: IEDB peptide-MHC binding, purified MHC/direct/fluorescence; filed as Kd, often an IC50 or EC50 that approximates it; bounds were set here for any values at or beyond the usual limits of such assays; settings: source organism: Homo sapiens

{"Input Sequence": "YLGSWATGK", "Kd / nM": 1960}

* * *

target: HLA-A*01:01; assay: IEDB peptide-MHC binding, purified MHC/competitive/fluorescence; filed as Kd, often an IC50 or EC50 that approximates it; bounds were set here for any values at or beyond the usual limits of such assays; settings: source organism: Salmonella enterica subsp. enterica serovar Typhi

{"Input Sequence": "ITDWLNFTL", "Target Under Test": "HLA-A*01:01", "Kd [nM]": 977}

* * *

molecular target: HLA-A*31:01; assay: IEDB peptide-MHC binding, purified MHC/direct/fluorescence; filed as Kd, often an IC50 or EC50 that approximates it; bounds were set here for any values at or beyond the usual limits of such assays; settings: source organism: Vibrio cholerae

{"Input Sequence": "AENKKFKLH", "Target Under Test": "HLA-A*31:01", "Kd": "≥ 20 µM"}

* * *

biological target: HLA-A*02:01; test: IEDB peptide-MHC binding, purified MHC/direct/fluorescence; filed as Kd, often an IC50 or EC50 that approximates it; bounds were set here for any values at or beyond the usual limits of such assays; conditions: source organism: Histophilus somni
pKd: −log10 of the molar value.

{"Input Sequence": "QYPAFVLFI", "pKd": "≤ 4.70"}

* * *

target: HLA-A*03:01; test: IEDB peptide-MHC binding, purified MHC/direct/fluorescence; filed as Kd, often an IC50 or EC50 that approximates it; bounds were set here for any values at or beyond the usual limits of such assays; conditions: source organism: Influenza A virus (A/camel/Mongolia/1982(H1N1))
pKd: −log10 of the molar value.
Reported Metric: pKd

{"Input Sequence": "ELDEIGEDV", "Reported Metric": "pKd", "Measured Value": "≤ 4.70"}

* * *

target: HLA-A*29:02; test: IEDB peptide-MHC binding, purified MHC/direct/fluorescence; filed as Kd, often an IC50 or EC50 that approximates it; bounds were set here for any values at or beyond the usual limits of such assays; details: source organism: Orthohantavirus andesense
pKd: −log10 of the molar value.

{"Input Sequence": "STGKSIKFK", "pKd": "≤ 4.70"}

* * *

biological target: HLA-B*18:01; test: IEDB peptide-MHC binding, purified MHC/direct/fluorescence; filed as Kd, often an IC50 or EC50 that approximates it; bounds were set here for any values at or beyond the usual limits of such assays; conditions: source organism: Orthohantavirus dobravaense

{"Input Sequence": "SEVTTCFFL", "Kd": "48.5 nM"}

* * *

molecular target: HLA-A*30:02; assay: IEDB peptide-MHC binding, purified MHC/competitive/radioactivity; filed as Kd, often an IC50 or EC50 that approximates it; bounds were set here for any values at or beyond the usual limits of such assays; details: source organism: Triticum aestivum

{"Input Sequence": "SSQVLQQSTY", "Kd": "588 nM"}

* * *

molecular target: HLA-A*11:01; assay: IEDB peptide-MHC binding, purified MHC/direct/fluorescence; filed as Kd, often an IC50 or EC50 that approximates it; bounds were set here for any values at or beyond the usual limits of such assays; conditions: source organism: Giardia lamblia ATCC 50803
pKd: −log10 of the molar value.
Reported pKd values follow for various sequences
Reported Metric: pKd

{"Input Sequence": "SVKERGPAY", "Reported Metric": "pKd", "Measured Value": 6.98}
{"Input Sequence": "RPRGHREFC", "Reported Metric": "pKd", "Measured Value": "≤ 4.70"}
{"Input Sequence": "LPVFATIGL", "Reported Metric": "pKd", "Measured Value": "≤ 4.70"}

* * *

target: HLA-A*01:01; experiment: IEDB peptide-MHC binding, purified MHC/competitive/fluorescence; filed as Kd, often an IC50 or EC50 that approximates it; bounds were set here for any values at or beyond the usual limits of such assays; details: source organism: Escherichia coli
pKd: −log10 of the molar value.

{"Input Sequence": "AAPLMQSLY", "pKd": "≤ 4.70"}
